target: ZFP SBS#483 (synthetic); assay: EMSA; conditions: tags: MBP fusion
Sequence (chain, as listed by the source): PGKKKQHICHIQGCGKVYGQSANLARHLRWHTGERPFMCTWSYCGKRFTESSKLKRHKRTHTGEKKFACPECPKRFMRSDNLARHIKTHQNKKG

{"binder": "GAGGGCGAAG (dsDNA) DNA 1: GAGGGCGAAG DNA 2: CTTCGCCCTC", "Kd (nM)": 130}
